target: human FXR (NR1H4) (Homo sapiens); assay: Human FXR (NR1H4) agonist assessment, FXRE-NanoLuc reporter in HEK293T cells; assay type: cell-based; conditions: FXR activation, HEK293T FXRE-NanoLuc reporter, 24 hr
Sequence (Q96RI1 1-476 isoform Q96RI1-1): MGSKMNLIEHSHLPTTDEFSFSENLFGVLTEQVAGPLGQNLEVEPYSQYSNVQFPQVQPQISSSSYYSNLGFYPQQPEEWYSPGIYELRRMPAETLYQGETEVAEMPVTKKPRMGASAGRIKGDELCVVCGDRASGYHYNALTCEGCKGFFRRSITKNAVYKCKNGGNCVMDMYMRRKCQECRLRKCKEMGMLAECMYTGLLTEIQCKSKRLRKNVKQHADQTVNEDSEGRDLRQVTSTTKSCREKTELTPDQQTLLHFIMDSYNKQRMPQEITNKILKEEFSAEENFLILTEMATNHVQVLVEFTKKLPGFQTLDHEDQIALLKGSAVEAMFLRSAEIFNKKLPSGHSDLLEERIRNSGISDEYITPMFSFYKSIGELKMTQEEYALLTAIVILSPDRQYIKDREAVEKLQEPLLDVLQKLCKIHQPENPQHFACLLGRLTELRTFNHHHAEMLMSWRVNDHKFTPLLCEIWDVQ
EXPERIMENTAL ENDPOINT: Efficacy (maximum measured induction of NanoLuc, normalized to CDCA set as 100%)

[2H]C1CC[C@@]2(C)[C@@H](C1)[C@@H](CC)[C@@H](O)[C@@H]1[C@@H]2CC[C@]2(C)[C@@H]([C@H](C)CCNC(=O)NS(=O)(=O)c3ccc(C(C)(C)CF)cc3)CC[C@@H]12 (stereo partly drawn) :: A (efficacy >400%)
CC[C@H]1[C@@H](O)[C@@H]2[C@H](CC[C@]3(C)[C@@H]([C@H](C)CCNC(=O)NS(=O)(=O)c4ccc(N5CCCCC5)nc4)CC[C@@H]23)[C@@]2(C)CCCC[C@@H]12 :: A (efficacy >400%)
